// provenance: the supplement of paper PMC11208160

test: recombinant UMI read abundance after kanamycin selection (control-corrected) (log10(CPM+1)); higher = more efficient recombination; extreme values may be limits of the assay; sequences stand for … in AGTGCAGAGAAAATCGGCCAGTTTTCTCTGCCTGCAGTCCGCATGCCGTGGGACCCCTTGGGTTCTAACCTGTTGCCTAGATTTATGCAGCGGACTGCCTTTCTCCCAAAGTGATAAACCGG…AGGTTGGTTTCACT; site = the 11-nt donor;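 note: IS621 bridge recombinase in Escherichia coli cells against a fixed T5 target plasmid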
Below, each entry is listed alongside its reported recombinant UMI read abundance (log10).

> print(dat)
                              sequence.data                         outcome.measure  recorded.measurement
1  ACGCACGCATGGACCGGTTTTCCCGGTAATCCGTATTTGGG (site ATGCACGCTCC)  recombinant UMI read abundance (log10)                  0.12
2  ATGGAGGCATGGACCGGTTTTCCCGGTAATCCGTATTTGTG (site ATGGAGGCTCA)  recombinant UMI read abundance (log10)                  1.11
3  ATGTAAGCATGGACCGGTTTTCCCGGTAATCCGTATTTGGC (site ATGTATGCTGC)  recombinant UMI read abundance (log10)                     0
4  AAGTACGCATGGACCGGTTTTCCCGGTAATCCGTATTTGGG (site AAGGACGCTCC)  recombinant UMI read abundance (log10)                 0.492
5  TGTCCCCCATGGACCGGTTTTCCCGGTAATCCGTATTTGTA (site TGTCCCCCTTA)  recombinant UMI read abundance (log10)                0.0699
6  CGGGACTCATGGACCGGTTTTCCCGGTAATCCGTATTTGCC (site CGGGAGTCTGG)  recombinant UMI read abundance (log10)                     0
7  CTAGTATCATGGACCGGTTTTCCCGGTAATCCGTATTTGAC (site CGAGTACCTGT)  recombinant UMI read abundance (log10)                     0
8  CACTCGTCATGGACCGGTTTTCCCGGTAATCCGTATTTGCC (site CACTCGTCTGG)  recombinant UMI read abundance (log10)                   3.2

Ask: For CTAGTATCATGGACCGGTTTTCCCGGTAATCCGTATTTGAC (site CTAGTAACTGA) , what is its reported recombinant UMI read abundance (log10)?
Reply: 0

Ask: Also, TCCAATTCATGGACCGGTTTTCCCGGTAATCCGTATTTGAC (site TCCAATTCTGC) please.
Reply: 0

Ask: Another sequence: TCAACCCCATGGACCGGTTTTCCCGGTAATCCGTATTTGGT (site TCAACCCCTAC)
Reply: 0

Ask: Please do the same for TTTGCGGCATGGACCGGTTTTCCCGGTAATCCGTATTTGCT (site CTTGCGGCTAG) as well.
Reply: 0.00458

Ask: Try CCGTTTCCATGGACCGGTTTTCCCGGTAATCCGTATTTGAC (site CCGTTTCCTGT) next.
Reply: 0

Ask: // next record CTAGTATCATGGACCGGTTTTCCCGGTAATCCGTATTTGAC (site CGATTATCTGT)
Reply: 0

Ask: What about this sequence? GCCGTCCCATGGACCGGTTTTCCCGGTAATCCGTATTTGCA (site GCCGTCCCTTG)
Reply: 0.345

Ask: Subsequent entry: AGGAATTCATGGACCGGTTTTCCCGGTAATCCGTATTTGTT (site CGGAATCCTAA)
Reply: 0
